- Read-out: Monocyte Chemoattractant Protein-1 (MCP1), CCL2 (gene 6347)
- experiment description: BSK_LPS_MCP1: BioMAP Diversity Plus: LPS Assay for Monocyte Chemoattractant Protein-1 (MCP1) Biomarker Activity (AID 2283081)
- settings: primary human HUVEC with PBMC; actives raise or lower the signal
Active and inactive are the calls of the source. The calls were made as follows: active = hit-call score of the fitted dose curve at least 0.9, where 1 is the maximum; inactive = score below 0.9.
API: response.call in active, inactive

Use the examples below as a reference point.
[
  {
    "molecule": "CCC1(c2ccccc2)C(=O)N=C(O)NC1=O (stereo not drawn)",
    "discrete label": "inactive"
  },
  {
    "molecule": "O=C(O)C(F)(OC(F)(F)C(F)(F)C(F)(F)F)C(F)(F)F (stereo not drawn)",
    "discrete label": "inactive"
  },
  {
    "molecule": "C=CC(=O)OCC(CC)(COC(=O)C=C)COC(=O)C=C",
    "discrete label": "active"
  }
]

## Input Write down the call the test reported for this molecule. Item: O=[N+]([O-])c1ccccc1
## Output inactive

## Input Please indicate how the test categorized Nc1ccc2ccccc2c1 .
## Output inactive

## Input Give the logged outcome of this assay for the following molecule: CCOP(=S)(OCC)SCSc1ccc(Cl)cc1
## Output inactive

## Input How was OCC(F)(F)OC(F)(F)C(F)(F)OC(F)(F)C(F)(F)OC(F)(F)CO classified in this test?
## Output inactive

## Input // return assay outcome for Cc1c([N+](=O)[O-])cc2c(c1[N+](=O)[O-])C(C)(C)CC2(C)C
## Output inactive

## Input Tell me the recorded outcome of this test for NC(=O)C(F)(F)C(F)(F)F .
## Output inactive

## Input Hey, what did the test say about c1ccc2c(c1)Nc1ccccc1S2 ?
## Output inactive

## Input Recorded test call requested for Cc1ccc([N+](=O)[O-])cc1C
## Output inactive

## Input State the result this test recorded for ClC(Cl)c1ccccc1 .
## Output inactive

## Input What was the test verdict on CC(C)(C)c1ccccc1OP(=O)(Oc1ccccc1)Oc1ccccc1 ?
## Output active

## Input Field: outcome | Entry: COCCOCCO
## Output active

## Input Recorded call for COC(=O)C(F)(F)C(F)(F)OC(F)(C(F)(F)F)C(F)(F)OC(F)=C(F)F (stereo not drawn) ?
## Output inactive

---

- assayed system: human Peripheral-type Benzodiazepine Receptor (PBR), TSPO (gene 706)
- experiment description: NVS_MP_hPBR: NovaScreen (NVS) Membrane Protein Assay for human Peripheral-type Benzodiazepine Receptor (PBR) (AID 2283331);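 also: hits reduce radioligand binding relative to DMSO baseline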
- Description: NVS_MP_hPBR is a biochemical, single-readout assay that uses extracted gene-proteins from Human colonic cell membranes in a tissue-based cell-free assay. Measurements were taken 1 hour after chemical dosing in a 48-well plate.NVS_MP_hPBR is one of one assay component(s) measured or calculated from the NVS_MP_hPBR assay. […] This assay endpoint, NVS_MP_hPBR, was analyzed in the positive analysis fitting direction relative to DMSO as the negative control and baseline of activity. […]
Results filed as inconclusive are left out. Calls of active or inactive are those of the source. The calls were made as follows: active = hit-call score of the fitted dose curve at least 0.9, where 1 is the maximum; inconclusive = response in the unintended direction; inactive = score below 0.9.
Assign a class; possible classes are active, inactive

[
  {
    "compound": "N#Cc1c(-c2ccc(Cl)cc2)[nH]c(C(F)(F)F)c1Br",
    "discrete label": "active"
  },
  {
    "compound": "CCCCC(CC)COP(=O)(Oc1ccccc1)Oc1ccccc1 (centres undefined)",
    "discrete label": "active"
  }
]

## Input Returns: the outcome recorded for CO/N=C(/C(=O)OC)c1ccccc1COc1ccccc1C in this assay.
## Output active

## Input Please share the test call associated with Cc1cc(C)c(C(=O)P(=O)(c2ccccc2)c2ccccc2)c(C)c1 .
## Output active
